targetOfAssay: type 2 angiotensin II receptor (AT2) (Bos taurus)
Construct: membrane fractions of bovine cerebellum
Sequence (G5E6F7 1-362): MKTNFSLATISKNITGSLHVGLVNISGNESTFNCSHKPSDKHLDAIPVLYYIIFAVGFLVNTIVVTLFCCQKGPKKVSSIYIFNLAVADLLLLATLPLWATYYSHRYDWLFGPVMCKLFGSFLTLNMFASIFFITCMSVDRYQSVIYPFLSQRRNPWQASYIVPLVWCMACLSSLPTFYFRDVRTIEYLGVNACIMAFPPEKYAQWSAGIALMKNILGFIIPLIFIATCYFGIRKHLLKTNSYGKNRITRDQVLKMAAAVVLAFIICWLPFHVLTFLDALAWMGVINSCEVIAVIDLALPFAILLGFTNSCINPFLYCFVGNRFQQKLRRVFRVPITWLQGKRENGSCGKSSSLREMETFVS
protocolNotes: Interaction with the type 2 angiotensin II receptor (AT2) on membrane fractions of bovine cerebellum, 125I-angiotensin II binding
conditionInfo: bovine cerebellum membranes; 125I-angiotensin II about 0.1 nM; 60 min, 37° C.
recordedMetric: Ki (µM)
Give bare numbers, in µM.

Recorded result, CCCCc1nc(Cl)c(/C=C(\CC2CCCCC2)C(=O)O)n1Cc1ccc(C(C(=O)O)C2CCCC2)cc1 (racemic) [Example 4] , Ki: 0.827
